Cited source for all entries: PubChem BioAssay AID1159580

Quick reference for normalized growth among some compounds
Experiment: chemical genetic growth profiling, strain panel (AID 1159580);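 further: tested at 20 µM; growth read once vehicle control cultures reached saturation at 30 °C; 1 = growth at the plate median or of vehicle wells; lower values mean less growth of the strain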
Conditions: S. cerevisiae deletion strains, growth OD, locus YJL168C, strain set2, stronger effect = lower value
In all, about 5,500 compounds went through this assay and about 2,000 (36%) were called active. Inconclusive results (about 18%) are left out. The list shows a part of the results.

{"compound": "O=C(O[C@@H]1Cc2c(O)cc(O)cc2O[C@@H]1c1cc(O)c(=O)c2c(O)c(O)cc([C@H]3Oc4cc(O)cc(O)c4C[C@H]3OC(=O)c3cc(O)c(O)c(O)c3)c2c1)c1cc(O)c(O)c(O)c1", "normalized growth": 1.01}
{"compound": "CNC(C)C(O)c1ccccc1 (centres undefined)", "normalized growth": 1.02}
{"compound": "CC(=O)Oc1ccc2c(c1OC(C)=O)OCC1(O)Cc3c(cc(OC(C)=O)c(OC(C)=O)c3OC(C)=O)C21 (centres undefined)", "normalized growth": 0.997}
{"compound": "Cc1cc(OC(=O)c2c(C)cc(OC(=O)c3c(C)cc(O)cc3O)cc2O)cc(O)c1C(=O)O", "normalized growth": 0.999}
{"compound": "CCN1C[C@]2(C)CC[C@H](OC)[C@]34C2[C@H](O)[C@]2(OCO[C@@]25C[C@H](OC)[C@H]2C[C@]3(O)C5[C@H]2O)C14", "normalized growth": 1.01}
{"compound": "Oc1ccc2c(c1)OCC1(O)Cc3cc(O)c(O)cc3C21 (centres undefined)", "normalized growth": 0.983}
{"compound": "COc1ccc2c3c1OC1C(O)CC=C4C(C2)N(C)CCC431 (centres undefined)", "normalized growth": 1.02}
{"compound": "CC1O[C@@H](Oc2c(-c3ccc(O)c(O)c3)oc3cc(O)cc(O)c3c2=O)[C@H](O)[C@H](O)[C@H]1O (some centres undefined)", "normalized growth": 0.996}
{"compound": "O=C(O[C@@H]1Cc2c(O)cc(O)cc2O[C@@H]1c1cc(O)c(=O)c2c(O)c(O)cc([C@H]3Oc4cc(O)cc(O)c4C[C@H]3O)c2c1)c1cc(O)c(O)c(O)c1", "normalized growth": 0.997}
{"compound": "O=C(OC1Cc2c(O)cc(O)cc2OC1c1cc(=O)c(O)c2c(O)c(O)cc(C3Oc4cc(O)cc(O)c4CC3O)c2c1)c1cc(O)c(O)c(O)c1 (centres undefined)", "normalized growth": 0.954}
{"compound": "COC(=O)c1c(C)cc(OC)cc1O", "normalized growth": 0.986}
{"compound": "CCOC(=O)c1c(C)cc(OC)cc1O", "normalized growth": 0.959}
{"compound": "CCC(=O)c1c(O)cc(O)cc1O", "normalized growth": 0.979}
{"compound": "CCC/C=C1\\OC(=O)C2=C1CCC=C2", "normalized growth": 0.986}
{"compound": "Cc1ccccc1OCC(O)CO (centres undefined)", "normalized growth": 0.991}
{"compound": "O=C(O)C1=C[C@@H](O)[C@@H](O)[C@H](O)C1", "normalized growth": 1.01}
{"compound": "CCN(Cc1ccncc1)C(=O)C(CO)c1ccccc1 (centres undefined)", "normalized growth": 0.983}
{"compound": "COc1ccc(-c2oc3cc(O[C@H]4O[C@H](CO)[C@@H](O)[C@H](O)[C@H]4O)c(OC)c(O)c3c(=O)c2OC)cc1O", "normalized growth": 0.977}
{"compound": "Cc1cc(OC(=O)c2c(C)cc(O)cc2O)cc(O)c1C(=O)O", "normalized growth": 1}
